- Target System: human ether-à-go-go-related gene (hERG) potassium channel (human, UniProt Q12809);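 also: peak tail current of the secondary pulse compared with the same well before compound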
- Sequence (Q12809 whole entry, looked up): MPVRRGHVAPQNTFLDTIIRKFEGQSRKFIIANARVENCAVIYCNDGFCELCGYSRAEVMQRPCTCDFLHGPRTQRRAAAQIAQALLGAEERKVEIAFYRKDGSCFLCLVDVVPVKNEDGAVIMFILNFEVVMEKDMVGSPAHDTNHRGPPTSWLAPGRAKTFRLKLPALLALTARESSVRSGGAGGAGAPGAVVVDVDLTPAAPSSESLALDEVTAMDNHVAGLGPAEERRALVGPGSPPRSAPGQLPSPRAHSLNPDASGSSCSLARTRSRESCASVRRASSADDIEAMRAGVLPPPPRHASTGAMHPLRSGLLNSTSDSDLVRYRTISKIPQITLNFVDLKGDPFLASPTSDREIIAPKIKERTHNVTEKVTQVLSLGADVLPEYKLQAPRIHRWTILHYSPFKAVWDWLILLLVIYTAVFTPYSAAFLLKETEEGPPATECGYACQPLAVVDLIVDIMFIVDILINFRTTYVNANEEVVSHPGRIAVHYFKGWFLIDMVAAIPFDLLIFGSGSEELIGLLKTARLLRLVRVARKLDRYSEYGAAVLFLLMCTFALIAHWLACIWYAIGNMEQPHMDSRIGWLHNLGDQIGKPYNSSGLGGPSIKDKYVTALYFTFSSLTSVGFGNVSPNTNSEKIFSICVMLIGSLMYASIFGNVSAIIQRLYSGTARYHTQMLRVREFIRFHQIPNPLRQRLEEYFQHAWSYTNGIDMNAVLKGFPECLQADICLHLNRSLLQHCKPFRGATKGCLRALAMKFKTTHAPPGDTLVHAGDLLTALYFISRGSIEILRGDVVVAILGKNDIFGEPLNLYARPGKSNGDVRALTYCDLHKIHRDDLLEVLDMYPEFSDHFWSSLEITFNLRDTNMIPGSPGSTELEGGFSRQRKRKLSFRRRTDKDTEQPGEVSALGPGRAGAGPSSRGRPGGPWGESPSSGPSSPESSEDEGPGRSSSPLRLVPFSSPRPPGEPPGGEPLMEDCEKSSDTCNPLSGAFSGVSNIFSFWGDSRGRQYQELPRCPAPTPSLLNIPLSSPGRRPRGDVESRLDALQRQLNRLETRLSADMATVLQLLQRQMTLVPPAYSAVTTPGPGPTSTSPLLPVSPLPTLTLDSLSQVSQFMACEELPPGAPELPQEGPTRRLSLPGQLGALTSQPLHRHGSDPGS
- Experiment Summary: primary screen, population patch clamp on CHO cells stably expressing hERG; higher = less effect of the substance
The campaign covered roughly 310,000 compounds. About 14,000 (4.5%) showed an effect of 50% or more. The effect is printed as a negative number. The full list was thinned out, with strong results kept by preference.
Quick reference for hERG current change (%, negative = inhibition) at 10uM among some compounds
Measurement Kind: hERG current change (%, negative = inhibition) at 10uM (%)

[
  {
    "Compound": "Cn1c(=O)c2c(nc(SCC(=O)NCc3ccc4c(c3)OCO4)n2Cc2ccc(Cl)cc2)n(C)c1=O",
    "Result Unit": "%",
    "Numeric Readout": -50.6
  },
  {
    "Compound": "Cn1c(=O)c2c(nc(NCc3ccc4c(c3)OCO4)n2Cc2ccc(F)cc2)n(C)c1=O",
    "Result Unit": "%",
    "Numeric Readout": -5.77
  },
  {
    "Compound": "O=C(CCCOC(=O)c1ccc(O)cc1O)c1ccc(F)cc1",
    "Result Unit": "%",
    "Numeric Readout": -11.6
  },
  {
    "Compound": "CC(=O)c1ccccc1NC(=O)C1CCCN(C(=O)c2ccc(Cl)cc2)C1 (stereo not drawn)",
    "Result Unit": "%",
    "Numeric Readout": -25.6
  },
  {
    "Compound": "CCN1CCN(C2=C(NS(=O)(=O)c3ccccc3)C(=O)c3ccccc3C2=O)CC1",
    "Result Unit": "%",
    "Numeric Readout": -5.21
  },
  {
    "Compound": "CCN1CCN(C2=C(NS(=O)(=O)c3ccc(NC(C)=O)cc3)C(=O)c3ccccc3C2=O)CC1",
    "Result Unit": "%",
    "Numeric Readout": 7.39
  },
  {
    "Compound": "COC(=O)C1=C(N)Oc2cc(C)n(CC3CCCO3)c(=O)c2C1c1ccc(Cl)cc1 (stereo not drawn)",
    "Result Unit": "%",
    "Numeric Readout": -8.41
  },
  {
    "Compound": "O=C1C(NS(=O)(=O)c2ccc(Br)cc2)=C(N2CCCCC2)C(=O)c2ccccc21",
    "Result Unit": "%",
    "Numeric Readout": -33.1
  },
  {
    "Compound": "NC(=O)C1CCN(C2=C(NS(=O)(=O)c3ccc(Cl)cc3)C(=O)c3ccccc3C2=O)CC1",
    "Result Unit": "%",
    "Numeric Readout": -38.3
  }
]
